TESTED TARGET: ACE (E.C. 3.4.15.1) derived from rabbit lungs (Oryctolagus cuniculus)
Construct: ACE (E.C. 3.4.15.1) derived from rabbit lungs; purchased Sigma Chemical Co. (St. Louis, MO, USA); host or cells: rabbit lung tissue
Sequence (P12822 34-1310): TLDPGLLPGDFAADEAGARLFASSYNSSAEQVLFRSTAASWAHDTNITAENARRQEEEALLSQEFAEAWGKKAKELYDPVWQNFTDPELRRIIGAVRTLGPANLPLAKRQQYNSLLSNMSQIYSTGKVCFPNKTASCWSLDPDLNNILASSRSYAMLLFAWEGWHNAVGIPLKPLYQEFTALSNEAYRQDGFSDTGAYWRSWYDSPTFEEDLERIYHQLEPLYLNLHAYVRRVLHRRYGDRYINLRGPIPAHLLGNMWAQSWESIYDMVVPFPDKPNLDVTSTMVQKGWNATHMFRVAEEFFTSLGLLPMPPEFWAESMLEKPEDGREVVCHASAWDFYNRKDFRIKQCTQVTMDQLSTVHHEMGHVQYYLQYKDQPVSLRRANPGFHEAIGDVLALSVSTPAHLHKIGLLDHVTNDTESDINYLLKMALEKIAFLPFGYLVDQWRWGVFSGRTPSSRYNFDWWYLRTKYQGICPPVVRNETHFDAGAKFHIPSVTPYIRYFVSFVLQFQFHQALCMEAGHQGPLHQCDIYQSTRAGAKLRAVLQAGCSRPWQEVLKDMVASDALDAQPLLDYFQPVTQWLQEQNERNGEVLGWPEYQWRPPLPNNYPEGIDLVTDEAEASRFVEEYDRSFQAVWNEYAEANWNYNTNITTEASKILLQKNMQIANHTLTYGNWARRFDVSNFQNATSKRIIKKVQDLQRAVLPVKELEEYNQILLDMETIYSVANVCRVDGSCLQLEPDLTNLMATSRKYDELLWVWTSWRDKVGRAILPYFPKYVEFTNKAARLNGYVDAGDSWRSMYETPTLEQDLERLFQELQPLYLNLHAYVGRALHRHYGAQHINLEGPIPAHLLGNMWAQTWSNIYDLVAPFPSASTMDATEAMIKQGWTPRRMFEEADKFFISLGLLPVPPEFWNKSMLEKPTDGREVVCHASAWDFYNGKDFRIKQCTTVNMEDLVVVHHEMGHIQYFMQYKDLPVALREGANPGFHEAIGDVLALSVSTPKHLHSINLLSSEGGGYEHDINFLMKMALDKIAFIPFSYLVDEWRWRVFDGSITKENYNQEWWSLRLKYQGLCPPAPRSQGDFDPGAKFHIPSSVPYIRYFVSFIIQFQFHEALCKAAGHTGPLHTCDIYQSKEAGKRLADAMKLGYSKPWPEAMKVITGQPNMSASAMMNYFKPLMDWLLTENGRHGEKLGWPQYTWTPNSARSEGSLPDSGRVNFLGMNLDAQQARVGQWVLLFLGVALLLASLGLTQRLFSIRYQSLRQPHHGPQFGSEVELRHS
ASSAY NAME: ACE inhibition kinetics (Lineweaver-Burk)
Assay type: biochemical
CONDITION SUMMARY: secondary plot 1/Vmax vs peptide concentration; 37°C; n = 3
Ends that are not written are not given here.
OBSERVED PROPERTY: Ki (µM)
I only need the number, in µM, no unit after it.

Q) Param readout= Ki; system= ACE (E.C. 3.4.15.1) derived from rabbit lungs (Oryctolagus cuniculus); entry= FCLYELAR [FCLYELAR, Phe-Cys-Leu-Tyr-Glu-Leu-Ala-Arg] ; returns value.
A) 24.8
